Cited source: patent US12077503B2

tested on: Kochia (Kochia scoparia); test: Test A postemergence; assay type: in vivo; settings: Bassia scoparia, post-emergence, 240 h, 125 g ai/ha, Postemergence, visual rating about 10 d after treatment; read-out: Kochia plant response rating (0 to 100 scale)
Text: […]
This section presents compounds with their documented pest or weed control at 125 g/ha values.
readout.name: pest or weed control at 125 g/ha (%)

compound	readout.name	val
Cc1c(F)cccc1NC(=O)[C@H]1C(=O)N(C)C[C@@H]1c1ccc2c(c1)C(F)(F)C(F)(F)O2 [Compound 1272]	pest or weed control at 125 g/ha	20
O=C1NC[C@H](c2cc(C(F)(F)F)ccn2)[C@H]1C(=O)Nc1cccc(F)c1F (racemic) [Compound 1376]	pest or weed control at 125 g/ha	0
CO[C@]1(C(=O)Nc2cccc(F)c2F)C(=O)N(C)C[C@@H]1c1ccc(C(F)(F)F)cc1 (racemic) [Compound 1334]	pest or weed control at 125 g/ha	0
Cc1cccc([C@H]2CN(C)C(=O)[C@@H]2C(=O)Nc2ccc(F)nc2F)c1 [Compound 1349]	pest or weed control at 125 g/ha	30
COc1c([C@H]2CN(C)C(=O)[C@@H]2C(=O)Nc2ccccc2F)cccc1C(F)(F)F [Compound 1338]	pest or weed control at 125 g/ha	0
Cc1nc([C@H]2CN(C)C(=O)[C@@H]2C(=O)Nc2cccc(F)c2F)cs1 [Compound 1281]	pest or weed control at 125 g/ha	0

----------
tested on: pigweed (Amaranthus retroflexus); test: Test A postemergence; format: in vivo; conditions: 500 g ai/ha, postemergence; visual injury, 0 to 100 scale (0 no effect, 100 complete control), approx. 10 d

compound	assay.system	Plant response rating, Pigweed
CN1CC(c2cc(F)cc(F)c2)C(C(=O)Nc2ccccc2F)C1=O (centres unmarked)	pigweed (Amaranthus retroflexus)	0
CN1CC(c2cccc(C(F)(F)F)c2)C(C(=O)Nc2ccccc2C(F)(F)F)C1=O (centres unmarked)	pigweed (Amaranthus retroflexus)	50
CN1CC(c2cc(F)cc(F)c2)C(C(=O)Nc2cccc3c2CCCC3)C1=O (centres unmarked)	pigweed (Amaranthus retroflexus)	0
CN1CC(c2cccc(F)c2)C(C(=O)Nc2cccc(F)c2F)C1=O (centres unmarked)	pigweed (Amaranthus retroflexus)	40
CN1CC(c2cccc(F)c2)C(C(=O)Nc2ccc(F)cc2F)C1=O (centres unmarked)	pigweed (Amaranthus retroflexus)	0

----------
tested on: Kochia (Kochia scoparia); assay: Test A postemergence; assay type: in vivo; settings: Bassia scoparia, post-emergence, 240 h, 125 g ai/ha, postemergence, visual injury rating after approximately 10 d; read-out: Kochia plant response rating (0 to 100 scale, 0 no effect, 100 complete control)

smiles.text	assay.system	pest or weed control at 125 g/ha, %
CN1CC[C@H](c2ccc3c(c2)OC(F)(F)O3)[C@@H](C(=O)Nc2ccc(F)c(F)c2F)C1=O	Kochia (Kochia scoparia)	0
CSc1ccccc1NC(=O)[C@H]1C(=O)N(C)CC[C@@H]1c1cccc(OC(F)(F)F)c1	Kochia (Kochia scoparia)	0
CN1C[C@H](c2cc(F)cc(F)c2)[C@@H](C(=O)Nc2ccccc2[S@@+](C)[O-])C1=O	Kochia (Kochia scoparia)	50
CN1CC[C@H](c2ccc3c(c2)OC(F)(F)O3)[C@@H](C(=O)Nc2ccccc2C(F)(F)F)C1=O	Kochia (Kochia scoparia)	0
Cc1cc(C)cc([C@H]2CN(C)C(=O)[C@@H]2C(=O)Nc2ccccc2C(F)(F)F)c1	Kochia (Kochia scoparia)	0
Cc1c(F)cccc1NC(=O)[C@H]1C(=O)NC[C@@H]1c1cccc(C(F)(F)F)c1	Kochia (Kochia scoparia)	30
Cc1cc(C)cc([C@H]2CNC(=O)[C@@H]2C(=O)Nc2ccccc2C(F)(F)F)c1	Kochia (Kochia scoparia)	0

----------
This section presents compounds with their documented pest or weed control at 125 g/ha values.
system: pigweed (Amaranthus retroflexus); experiment: Test A preemergence; type: in vivo; settings: Amaranthus retroflexus, pre-emergence, 240 h, 125 g ai/ha, preemergence; 0 to 100 scale where 0 is no effect and 100 is complete control; read-out: Pigweed plant response rating

smiles.text	pest or weed control at 125 g/ha (%)
O=C1NC[C@H](c2ccc3c(c2)CCCO3)[C@H]1C(=O)Nc1ccccc1F	0
Cc1c(F)cccc1NC(=O)[C@H]1C(=O)NC[C@@H]1c1cccc(C(F)(F)F)c1	0
Cc1cc(F)ccc1NC(=O)[C@H]1C(=O)NC[C@@H]1c1cccc(C(F)(F)F)c1	0
CCOc1ccc([C@H]2CN(C)C(=O)[C@@H]2C(=O)Nc2ccccc2F)cc1	0
COc1c(F)ccc([C@H]2CN(C)C(=O)[C@@H]2C(=O)Nc2ccc(F)cc2F)c1Cl	20
Cc1c(F)ccc([C@H]2CN(C)C(=O)[C@@H]2C(=O)Nc2ccccc2F)c1F	0
COc1cc([C@H]2CN(C)C(=O)[C@@H]2C(=O)Nc2ccccc2SC)cc(C(F)(F)F)c1	60
CN1C[C@H](c2cc(F)cc(F)c2)[C@@H](C(=O)Nc2ncc(C(F)(F)F)cc2F)C1=O	0
Cc1cc([C@H]2CN(C)C(=O)[C@@H]2C(=O)Nc2cccc(F)c2F)ccc1Cl	20
CN1C[C@H](c2ccc(C(F)(F)F)cc2)[C@@H](C(=O)Nc2cccc(F)c2Br)C1=O	50

----------
system: barnyardgrass (Echinochloa crus-galli); test: Test A postemergence; type: in vivo; conditions: Echinochloa crus-galli, post-emergence, 240 h, 125 g ai/ha, postemergence, visual injury rating after approximately 10 d; read-out: Barnyardgrass plant response rating (0 to 100 scale, 0 no effect, 100 complete control)
This section presents molecules with their documented pest or weed control at 125 g/ha values.

molecule	pest or weed control at 125 g/ha (%)
CCOc1ccc([C@H]2CNC(=O)[C@@H]2C(=O)Nc2cccc(F)c2F)cc1	50
CN1C[C@H](c2ccc(C(F)(F)F)c(Br)c2)[C@@H](C(=O)Nc2cccc(F)c2F)C1=O	70
COc1c(F)ccc([C@H]2CNC(=O)[C@@H]2C(=O)Nc2ccccc2F)c1Cl	90
CN1CC[C@H](c2ccc3c(c2)OC(F)(F)O3)[C@@H](C(=O)Nc2cccc(F)c2F)C1=O	90
COc1c(F)ccc([C@H]2CNC(=O)[C@@H]2C(=O)Nc2cccc(F)c2F)c1Cl	80
CSc1ccccc1NC(=O)[C@H]1C(=O)N(C)CC[C@@H]1c1cccc(OC(F)(F)F)c1	0
O=C1NCC(c2cccc(I)c2)C1C(=O)Nc1ccccc1F (stereo not shown)	80

----------
This section presents compounds with their documented pest or weed control at 125 g/ha values.
tested on: barnyardgrass (Echinochloa crus-galli); assay: Test A preemergence; format: in vivo; conditions: Echinochloa crus-galli, pre-emergence, 240 h, Preemergence, 125 g ai/ha; 0 to 100 scale (0 no effect, 100 complete control); read-out: Plant response rating, Barnyardgrass
readout.name: pest or weed control at 125 g/ha (%)

compound	value.unit	val
Cc1ccc([C@H]2CN(C)C(=O)[C@@H]2C(=O)Nc2cccc(F)n2)cc1	%	100
CN1C[C@H](c2cccc(C(F)(F)F)c2)[C@@H](C(=O)Nc2cccnc2F)C1=O	%	100
CN1C[C@H](c2cc(C(F)(F)F)cs2)[C@@H](C(=O)Nc2cccc(F)c2F)C1=O	%	80
CO[C@]1(C(=O)Nc2cccc(F)c2F)C(=O)N(C)C[C@@H]1c1ccc(C(F)(F)F)cc1 (racemic)	%	20
Cc1c(F)ccc([C@H]2CNC(=O)[C@@H]2C(=O)Nc2ccccc2F)c1F	%	80
O=C1NC[C@H](c2cc(C(F)(F)F)ccn2)[C@H]1C(=O)Nc1cccc(F)c1F (racemic)	%	90
O=C1NC[C@H](c2cccc(C(F)(F)F)n2)[C@H]1C(=O)Nc1cccc(F)c1F	%	90
CN1C[C@H](c2ccc(C(F)(F)F)cc2)[C@@H](C(=O)Nc2cccc(F)c2C#N)C1=O	%	90
O=C1NCC(c2ccccc2)C1C(=O)Nc1cccnc1 (stereo not shown)	%	0
CN1C[C@H](c2ccc(C(F)(F)F)cc2)[C@@H](C(=O)Nc2ccc(F)nc2F)C1=O	%	100

----------
tested on: pigweed (Amaranthus retroflexus); test: Test A preemergence; assay type: in vivo; conditions: Amaranthus retroflexus, pre-emergence, 240 h, 500 g ai/ha, preemergence; 0 to 100 scale where 0 is no effect and 100 is complete control; read-out: Pigweed plant response rating
Sorting guide: entries reporting pest or weed control at 500 g/ha beneath 40% go in the True pile, the rest go in the False pile.

smiles.text	discrete.label
CCc1cc([C@H]2CN(C)C(=O)[C@@H]2C(=O)Nc2cccc(F)c2F)cs1	False
COc1cc([C@H]2CN(C)C(=O)[C@@H]2C(=O)Nc2ccccc2F)ccc1F	True
CN1C[C@H](c2csc3ccccc23)[C@@H](C(=O)Nc2ccccc2F)C1=O	True
Cc1c(F)ccc([C@H]2CNC(=O)[C@@H]2C(=O)Nc2ccccc2F)c1F	True
CCc1cc([C@H]2CNC(=O)[C@@H]2C(=O)Nc2cccc(F)c2F)cs1	True
COc1ccc([C@H]2CN(C)C(=O)[C@@H]2C(=O)Nc2cccc(F)c2F)c(OC)c1	True
Cc1nc([C@H]2CNC(=O)[C@@H]2C(=O)Nc2ccccc2F)cs1	True
CCc1ccc([C@H]2CNC(=O)[C@@H]2C(=O)Nc2c(F)cccc2F)cc1	True
CN1C[C@H](c2cc(C(F)F)cs2)[C@@H](C(=O)Nc2cccc(F)c2F)C1=O	False
O=C1NC[C@H](c2csc(C(F)F)c2)[C@H]1C(=O)Nc1ccccc1F	True
O=C1NC[C@H](c2csc(C(F)F)c2)[C@H]1C(=O)Nc1cccc(F)c1F	True
CSc1ccccc1NC(=O)[C@H]1C(=O)N(C)C[C@@H]1c1ccc(F)cc1	False
